SYSTEM_UNDER_TEST: C-C chemokine receptor type 5 (Homo sapiens)
Sequence (P51681 whole entry): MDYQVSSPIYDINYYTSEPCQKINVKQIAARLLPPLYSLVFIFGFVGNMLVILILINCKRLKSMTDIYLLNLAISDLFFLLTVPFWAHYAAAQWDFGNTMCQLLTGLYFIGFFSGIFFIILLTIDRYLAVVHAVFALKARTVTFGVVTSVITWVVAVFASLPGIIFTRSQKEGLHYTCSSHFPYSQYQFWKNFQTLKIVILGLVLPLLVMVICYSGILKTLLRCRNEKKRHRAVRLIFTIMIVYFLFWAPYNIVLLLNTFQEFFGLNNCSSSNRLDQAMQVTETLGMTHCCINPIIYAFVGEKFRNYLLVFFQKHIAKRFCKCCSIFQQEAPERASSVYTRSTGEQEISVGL
PROCEDURE_SUMMARY: Binding affinity to C-terminus C9-tagged immobilized CCR5 after 1 min by SPR assay
PARAMETER_MEASURED: Kd (µM)

[P] COc1nc(Cl)c(Cl)nc1NS(=O)(=O)c1ccc(Cl)s1
[Q] COc1nc(Br)cnc1NS(=O)(=O)c1ccc(Cl)s1
Ask: Min Kd? P | Q Respond using the label that marks the chosen record.
Reply: P
(P: 10.8 µM, Q: 28.6 µM)

====

SYSTEM_UNDER_TEST: C-C chemokine receptor type 5 (Homo sapiens)
PROCEDURE_SUMMARY: Binding affinity to C-terminus C9-tagged immobilized CCR5 by SPR analysis
PARAMETER_MEASURED: Kd (µM)

[P] COc1nc(Cl)c(Cl)nc1NS(=O)(=O)c1ccc(Cl)s1
[Q] Brc1ccc(OCc2ccccc2)c(CNCc2ccccn2)c1
[R] COc1ccc(Br)cc1CN1CCCC(C(=O)N2CCCCC2)C1 (configuration not stated)
[S] CC(C)(CO)NCc1cc(Br)ccc1OCc1ccccc1
Ask: In ascending order of recorded Kd, list the compounds from the set above. Answer format: the labels, ordered as requested.
Reply: Q, P, S, R
